Just for reference, paper PMC11350758 is where these values come from.

- assay: In vitro cytotoxicity evaluation
- Assay type: cell-based
- protocol-conditions: human; LO2 cells, 128 μg/mL; read-out: Cell Viability (%)
measured-metric: viability at 128 μg/mL (%)
Field format: number, assumed %, no unit text.

Sample CC(=O)c1c(OCCCNCCCN2CCN(C)CC2)c2c(c3c1OC(C)(CCC=C(C)C)C=C3)OC(C)(CCC=C(C)C)C=C2 (stereo not shown) ; viability at 128 μg/mL observed: 19.7

====

- assay: In vitro cytotoxicity evaluation
- Assay type: cell-based
- protocol-conditions: human; LO2 cells, 4 μg/mL; read-out: Cell Viability (%)
measured-metric: viability at 4 μg/mL
Please make sure the unit comes right after the number.

Sample CC(=O)c1c(OCCCNCCCN2CCN(C)CC2)c2c(c3c1OC(C)(CCC=C(C)C)C=C3)OC(C)(CCC=C(C)C)C=C2 (stereo not shown) [Compound 9h] ; viability at 4 μg/mL observed: 88.6%

====

- assay: In vitro cytotoxicity evaluation
- Type: cell-based
- protocol-conditions: human; LO2 cells, 64 μg/mL; read-out: Cell Viability (%)
measured-metric: viability at 64 μg/mL (%)
Field format: number, assumed %, no unit text.

Sample CC(=O)c1c(OCCCNCCCN2CCN(C)CC2)c2c(c3c1OC(C)(CCC=C(C)C)C=C3)OC(C)(CCC=C(C)C)C=C2 (stereo not shown) ; viability at 64 μg/mL observed: 58.1

====

- Tested on: Enterococcus faecalis ATCC29212, vancomycin-susceptible strain
- assay: MIC, broth microdilution
- Format: cell-based
- protocol-conditions: Enterococcus faecalis ATCC29212; read-out: MIC E. f. 29212
measured-metric: MIC (µg/mL)
Field format: number, assumed µg/mL, no unit text.

compound	quantitative-readout
CC(=O)c1ccc2c(c1OCCCNCCCN1CCCC1)C=CC(C)(CCC=C(C)C)O2 (centres unmarked) [Compound 5h]	8
CC(=O)c1c(OCCCSC(=N)N)c2c(c3c1OC(C)(CCC=C(C)C)C=C3)OC(C)(CCC=C(C)C)C=C2 (centres unmarked) [Compound 9e]	64
CCN(CC)CCCOc1c2c(c3c(c1C(C)=O)OC(C)(CCC=C(C)C)C=C3)OC(C)(CCC=C(C)C)C=C2 (centres unmarked) [Compound 9c]	1

Then this compound:
Noted MIC for CC(=O)c1c(OCCC[n+]2ccccc2)c2c(c3c1OC(C)(CCC=C(C)C)C=C3)OC(C)(CCC=C(C)C)C=C2 (centres unmarked) [Compound 9b] , tested on Enterococcus faecalis ATCC29212, vancomycin-susceptible strain: 2

====

- System: S. aureus
- assay: MIC, summary over the S. aureus strains tested
- Assay type: cell-based
- protocol-conditions: Staphylococcus aureus; over the three S. aureus strains tested; read-out: MICs against S. aureus
We begin with a simple list: items and their reported MIC.

molecule	measured-metric	result
CC[N+](CC)(CC)CCCOc1c2c(c3c(c1C(C)=O)OC(C)(CCC=C(C)C)C=C3)OC(C)(CCC=C(C)C)C=C2 (stereo not drawn) [Compound 9a]	MIC	2 to 4 µg/mL

Sample CCN(CC)CCCOc1c2c(c3c(c1C(C)=O)OC(C)(CCC=C(C)C)C=C3)OC(C)(CCC=C(C)C)C=C2 (stereo not drawn) [Compound 9c] ; MIC observed: 2 to 4 µg/mL

Sample CCN(CC)CCCOc1c(C(C)=O)ccc2c1C=CC(C)(CCC=C(C)C)O2 (stereo not drawn) [Compound 5c] ; MIC observed: 8 to 128 µg/mL

Sample CC(=O)c1ccc2c(c1OCCCN(C)CC(C)(C)CN(C)C)C=CC(C)(CCC=C(C)C)O2 (stereo not drawn) [Compound 5g] ; MIC observed: 8 µg/mL

Sample CC(=O)c1ccc2c(c1OCCCNCCCN1CCCC1)C=CC(C)(CCC=C(C)C)O2 (stereo not drawn) [Compound 5h] ; MIC observed: 8 µg/mL

Sample CC[N+](CC)(CC)CCCOc1c(C(C)=O)ccc2c1C=CC(C)(CCC=C(C)C)O2 (stereo not drawn) [Compound 5a] ; MIC observed: 8 to 128 µg/mL
